Test: in vitro;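 further: microsomal protein concentration 1 mg/mL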
Conditions: human, microsomes
MEASURED_ATTRIBUTE: half-life (min)
State just the number; it will be interpreted in min.

Below are worked cases with known answers.
INSERT INTO results (compound, output_unit, value_reported) VALUES
  ('O=C(Nc1cc2cc[nH]c(=O)c2cc1Cl)C1CNCC1c1ccc(Br)cc1 (racemic)', 'min', 238),
  ('O=C(Nc1cc2cc[nH]c(=O)c2cc1Cl)C1CNCC1c1cccnc1 (racemic)', 'min', 49);

Okay, next one:
Lookup result for CNC(C(=O)Nc1cc2cc[nH]c(=O)c2cc1Cl)c1ccccc1 (stereo not drawn) ; measured half-life: 15
